# targetDesc: T1, MB peptide complexed with HLA-A*02:01 on T2 cells (human)
# T1 construct: whole, on cells
# procedureSummary: flow cytometry, peptide-loaded T2 cells;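 note: binding of single-chain Fv antibody constructs, raised in XenoMouse, to peptide-pulsed T2 cells measured by flow cytometry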
outcomeMeasure: Signal/background
In your answer, state the number alone without any accompanying words.

Some solved entries appear below for comparison.
binder="18181-E2 (scFv, scFv in bacterial lysate, detected with anti-Flag M2) scFv: EVQLLESGPGLVKPSQTLSLTCTVSGDSISSNPYYWSWIRQHPGKGLEWIGYISHSGSTYYNPSLKSRVTISVDTSKNQFSLNLTSVTAADTAVYYCARDRLWFGVLNYYYGMDVWGLGTTVTVSSGGGGSGGGGSGGGGSELVMTQSPLSLPVTPGEPASISCRSSQSLLHSSGYNYLDWYLQKPGQSPQLLIYLGSNRASGVPDRFSGSGSGTDFTLKISKVEAEDVGVYYCMQALQTPRTFGQGTKVDIK" outcomemeasure=Signal/background valuereported=1
binder="18182-B5 (scFv, scFv in bacterial lysate, detected with anti-Flag M2) scFv: EVQLLESGGGLVQPGGSLRLSCAASGFTFSSHAMSWVRQAPGKGLEWVSAISGSGGGTYYADSVKGRFTISRDNSKNTLYLQMNSLRAEDTAVYYCATGKGVHLGFDYWGQGTLVTVSSGGGGSGGGGSGGGGSELVLTQPPSVSVAPGQTARITCGGNNIGSKSVHWYQQKPGQAPVLVVYDDNDRPSGIPERFSGSNFGNTATLIISRVEAGDEADYYCQVWDSSSDHVVFGGGTKLTVL" outcomemeasure=Signal/background valuereported=1

Now for the binder whose Signal/background we want.
**Query** Reported Signal/background for 18182-H9 (scFv, scFv in bacterial lysate, detected with anti-Flag M2) scFv: EVQLLESGGGLVQPGGSLRLSCAASGFTFSSHAMSWVRQAPGKGLEWVSAISGSGGGTYYADSVKARFTISRDNSKNTLYLQMNSLRAEDTAVYYCATGKGVHLGFDYWGQGTLVTVSSGGGGSGGGGSGGGGSELVLTQPPSVSVAPGQTARITCGGNNIGSKSVHWHQQKPGQAPVLVVYDDNDRPSGIPERFSGSNSGNTATLTISRVEAGDEADFYCQVWDSSSDHVVFGGGTKLTVL : what is it?
**Result** 1
